System: HEK293 cells
Assay explanation: Preliminary screening as DNA vectors, GFP transfection of HEK293 cells
Assay type: cell-based
Applied conditions: amino lipid/DOPE liposome with 75 ng plasmid DNA (psin-EGFP-IRES-Puro); number of GFP-expressing cells divided by total nuclei (Hoechst)
I'd appreciate it if you could supply Absolute DNA transfection efficiency in HEK293 cells values for the items below.
Numbers only, in %.

| Molecule | Target of assay | Units label | Result number |
| --- | --- | --- | --- |
| CCCCCCCCCCCCCCCCCCNc1nc(NCCN2CCOCC2)nc(SCCCCCCCCC)n1 [S9N18 D2] | HEK293 cells | % | 10.2 |

Could you tell me Absolute DNA transfection efficiency in HEK293 cells for each of these molecules? They are listed below.
1. CCCCCCCCCCCCCCCCCCNc1nc(NCCN(CC)CC)nc(SCCCCCCCCCCCCCCC)n1 [S15N18 D7]
2. CCCCCCCCCCCCCCCCCCNc1nc(NCCN2CCOCC2)nc(SCCCCCCCCCCCCCCCCCC)n1 [S18N18 D2]
3. CCCCCCCCCCCCCCCCCCNc1nc(NCCN2CCCC2)nc(SCCCCCCC)n1 [S7N18 D3]
4. CCCCCCCCCCCCCCSc1nc(NCCCN(C)C)nc(N(CCCCCCCCCCCC)CCCCCCCCCCCC)n1 [S14^2N12 D6]
5. CCCCCCCCCCCCNc1nc(NCCN(CC)CC)nc(SCCCCCCC)n1 [S7N12 D7]
6. CCCCCCCCCCCCSc1nc(NCCCCCCCCC)nc(NCCN2CCCC2)n1 [S12N9 D3]

Given back:
1. 0.9
2. 0.1
3. 16.1
4. 0.2
5. 5.5
6. 7.0

The values you see were collected from patent US20230123334A1.
